Parameter TGI: see the listing below.
System: UACC-257 melanoma
Assay: NCI tumour cell line growth inhibition, 48 h
measured_attribute: TGI

CNNC1=NS(=O)(=O)c2cc(C#N)c(Cl)cc2S1    > 10 µM
CN(C)c1ccc(C=Nc2ccc(-c3nc4ccccc4[nH]3)cc2)cc1    > 100 µM
OC(c1ccccc1)(c1ccccc1)c1nccc2ccccc12    > 100 µM
O=C(CSc1nc2ccc([N+](=O)[O-])cc2s1)c1ccc2ccccc2c1    > 100 µM
c1ccc2sc(SCCSc3nc4ccccc4s3)nc2c1    > 100 µM
N.N.N.N.N.[Co+3].[I-].[N-]=[N+]=[N-]    > 100 µM
N#CC12Cc3cc4c(cc3-c3cccc(c31)CCN2C(=O)c1ccccc1)OCO4 (stereo unspecified)    > 100 µM
CCCCNC(=O)c1cc2c(cc1Cl)Sc1nccn1S2(=O)=O    > 100 µM
C=C=C(CC1CCCCC1=O)S(=O)(=O)c1ccccc1 (stereo unspecified)    > 10 µM
CN(C)C=Nc1ccn(CCO)c(=O)n1    > 100 µM
COC[C@@H](N=C1NC(=O)/C(=C/c2ccc3ncccc3c2)S1)c1ccccc1    > 25 µM

###

Test system: RXF 393 renal
Experiment: NCI tumour cell line growth inhibition, 48 h
measured_attribute: TGI (µM)

CC(=O)Nc1ccc2c(c1)C(c1ccccc1Cl)=Nc1c(n[nH]c1C)N2    9.59
O=c1cc(N=Nc2ccc(Br)cc2)[nH]c(=S)[nH]1    45.4
Cc1cc2c(c(C=Nc3ccccc3O)c1)OC1(C=C2)Oc2ccccc2C(=O)N1C (stereo not given)    37.2
C=C1C(=O)O[C@H]2C/C(C)=C/CC[C@@]3(C)O[C@](C)(CC[C@@H]3I)[C@@H](I)C[C@@H]12    12.7
Clc1ccccc1/C=c1\nc(-c2ccccc2)n2c1nc1ccccc12    41.9
COc1ccc2c(c1OC)C[C@@H]1c3c(cc4c(c3-2)OCO4)CCN1C    66.4
CCN(Cc1ccc(C)cc1)c1ccc(CO)c(Cl)c1    18.9
CC(C)(Br)C(=O)N1CCN(C(c2ccccc2)c2ccccc2)CC1    81.2
CC(=O)O[C@H]1C(=O)[C@@]2(C)C(C(OC(=O)c3ccccc3)[C@]3(O)C[C@H](OC(=O)C(OC(=O)CCCC(=O)NCCCN(C)C)C(NC(=O)c4ccccc4)c4ccccc4)C(C)=C1C3(C)C)C1(OC(C)=O)COC1C[C@@H]2O (stereo not given in full)    3.27
CC(C)(CN1CCCCC1)C(=O)/C=C/c1ccc(/C=C/C(=O)C(C)(C)CN2CCCCC2)cc1    0.745
Fc1cccc(COc2ccc(Nc3ncnc4sc(-c5cccs5)cc34)cc2Cl)c1    12
Cc1c(Cl)cccc1NC(=O)C(=O)C(C(=O)c1ccccc1-c1ccccc1)C1OC(=O)c2ccccc21 (stereo not given)    27.1
COC(=O)c1n[nH]c(C)c1N=NN(C)CCC#N    29.7
c1ccc2c(Cc3[nH]c4ccccc4c3Cc3c[nH]c4ccccc34)c[nH]c2c1    5.8
Cc1cc(C)n(CC(Cn2nc(C)cc2C)=C(/C(Cl)=C(/Cl)Nc2ccc([N+](=O)[O-])cc2)[N+](=O)[O-])n1    12.3

###

Known TGI of a selection of molecules
Test system: HOP-92 NSCLC
Assay: NCI tumour cell line growth inhibition, 48 h
measured_attribute: TGI

CCOC(=O)/C(=C/N1CCN(C(=O)c2ccco2)C1=S)C(=O)c1ccccc1    > 50 µM
CC(=O)C1=C(C)N2C(=NC3=C(CCc4ccccc43)C2c2ccc(F)cc2)S1 (stereo unspecified)    > 100 µM
Nc1ccc2c(O)cc(=O)[nH]c2n1    > 100 µM
Nc1ncnc2c1sc1nc3ccccc3n12    > 100 µM
O=c1ccn(CC2(CO)CCC2)c(=O)[nH]1    > 100 µM
O=C1NC(N2CCOCC2)=N/C1=C\c1ccc(Cl)cc1    > 100 µM

Where do these numbers come from? They come from PubChem BioAssay (NCI).
